Entries and their minimum inhibitory concentration values follow.
system: Histophilus somni; test: minimum inhibitory concentration (MIC); details: isolate (source animal id): 4
Measurement Type: minimum inhibitory concentration

Compound | Measurement Type | Experimental Value
CN[C@@H]1[C@H](O)[C@H](NC)[C@H]2O[C@@]3(O)C(=O)C[C@@H](C)O[C@H]3O[C@@H]2[C@H]1O [Spectinomycin] | minimum inhibitory concentration | > 64 µg/mL
CO/N=C(\C(=O)N[C@@H]1C(=O)N2C(C(=O)O)=C(CSC(=O)c3ccco3)CS[C@H]12)c1csc(N)n1 [Ceftiofur] | minimum inhibitory concentration | ≤ 0.25 µg/mL
CNC(C)C1CCC(N)C(OC2C(N)CC(N)C(OC3OCC(C)(O)C(NC)C3O)C2O)O1 (stereo unspecified) [Gentamicin] | minimum inhibitory concentration | 8 µg/mL
CC[C@H]1OC(=O)C[C@@H](O)[C@H](C)[C@@H](O[C@@H]2O[C@H](C)[C@@H](O)[C@H](N(C)C)[C@H]2O)[C@@H](CCN2CCCCC2)C[C@@H](C)C(=O)/C=C/C(C)=C/[C@@H]1CN1CCCCC1 [Tildipirosin] | minimum inhibitory concentration | 2 µg/mL
CC1(C)S[C@@H]2[C@H](NC(=O)[C@H](N)c3ccccc3)C(=O)N2[C@H]1C(=O)O [Ampicillin] | minimum inhibitory concentration | 0.5 µg/mL
C=C[C@]1(C)C[C@@H](OC(=O)CSCCN(CC)CC)[C@]2(C)[C@H](C)CC[C@]3(CCC(=O)[C@H]32)[C@@H](C)[C@@H]1O [Tiamulin] | minimum inhibitory concentration | 1 µg/mL

====

Entries and their minimum inhibitory concentration values follow.
test system: Pasteurella multocida; experiment: minimum inhibitory concentration (MIC); conditions: isolate (source animal id): 167

Structure As Smiles | minimum inhibitory concentration
CN[C@@H]1[C@H](O)[C@H](NC)[C@H]2O[C@@]3(O)C(=O)C[C@@H](C)O[C@H]3O[C@@H]2[C@H]1O | > 64 mg/L
CCCN1C[C@H](C)[C@@H](O)[C@](C)(O)[C@@H](CC)OC(=O)[C@H](C)[C@@H](O[C@H]2C[C@@](C)(OC)[C@@H](O)[C@H](C)O2)[C@H](C)[C@@H](O[C@@H]2O[C@H](C)C[C@H](N(C)C)[C@H]2O)[C@](C)(O)C[C@H]1C | ≤ 1 mg/L
CN1C[C@@H]2C[C@H]1CN2c1cc2c(cc1F)c(=O)c(C(=O)O)cn2C1CC1 | ≤ 0.12 mg/L
CCN1CCN(c2cc3c(cc2F)c(=O)c(C(=O)O)cn3C2CC2)CC1 | ≤ 0.12 mg/L

====

tested on: Pasteurella multocida; experiment: minimum inhibitory concentration (MIC); conditions: isolate (source animal id): 210
Measurement Type: minimum inhibitory concentration

Compound | Target Entity | Experimental Value
CNC(C)C1CCC(N)C(OC2C(N)CC(N)C(OC3OCC(C)(O)C(NC)C3O)C2O)O1 (stereo not drawn) | Pasteurella multocida | 4 µg/mL
CC[C@H]1OC(=O)C[C@@H](O)[C@H](C)[C@@H](O[C@@H]2O[C@H](C)[C@@H](O)[C@H](N(C)C)[C@H]2O)[C@@H](CCN2C[C@H](C)C[C@H](C)C2)C[C@@H](C)C(=O)/C=C/C(C)=C/[C@@H]1CO[C@@H]1O[C@H](C)[C@@H](O)[C@@H](OC)[C@H]1OC | Pasteurella multocida | > 16 µg/mL
COc1cc(NS(=O)(=O)c2ccc(N)cc2)nc(OC)n1 | Pasteurella multocida | > 256 µg/mL
